conditions: Crystal 1; DTA
result.type: Normal melting temperature (°C)

The examples below pair each entry with its known result.
| structure.notation | units.label | result |
| --- | --- | --- |
| c1ccc2ccccc2c1 | °C | 81.54 |
| CCCCCCCCCCCCCCCCCCCCCCCCC | °C | 52.77 |

1. CCCCCCCCCCCCCCCCCCCC
2. CCCCCCCCCCCCCCCCCCCCCCCCCCCCCCCCCCCC
Problem: Which of the two gives a bigger number for Normal melting temperature: 1 or 2 ? State the label of the item chosen.
Solution: 2
(2: 77.04 °C, 1: 38.5 °C)
